Source of measurements: ChEMBL document CHEMBL1153213

# Measurement protocol: Inhibition of Escherichia coli recombinant N-terminal hexahistidine-tagged CTP synthetase expressed in Escherichia coli BL21 (DE3) assessed as inhibition of CTP formation by continuous spectrophotometric assay in presence of 10 mM L-glutamine and 0.15 mM GTP
# Condition set: read-out: IC50
Entries and their measured IC50 follow.
Write it as a number; the unit µM goes unstated.

Complete the entry with IC50 for Cn1c(=O)c2c([nH]c(=O)n2C)n(C)c1=O 67

Next:
Give me measured IC50, please, for this molecule: Cn1c(=O)[nH]c2[nH]c(=O)[nH]c2c1=O 101

Indicate its recorded IC50; the molecule in question is O=c1cc[nH]c(=O)[nH]1 4200

Entry O=c1ccn([C@@H]2O[C@H](CO)[C@@H](O)[C@H]2O)c(=O)[nH]1 needs its IC50 filled in; supply it. 3100

Query IC50 for O=C(O)Cc1cc(=O)[nH]c(=O)[nH]1 2600

For the molecule Cn1c(=O)c2c(n(C)c1=O)n(C)c(=O)n2C , report IC50. 79
